molecular target: Nitric oxide synthase, endothelial (Homo sapiens, UniProt P29474)
Sequence (P29474 whole entry): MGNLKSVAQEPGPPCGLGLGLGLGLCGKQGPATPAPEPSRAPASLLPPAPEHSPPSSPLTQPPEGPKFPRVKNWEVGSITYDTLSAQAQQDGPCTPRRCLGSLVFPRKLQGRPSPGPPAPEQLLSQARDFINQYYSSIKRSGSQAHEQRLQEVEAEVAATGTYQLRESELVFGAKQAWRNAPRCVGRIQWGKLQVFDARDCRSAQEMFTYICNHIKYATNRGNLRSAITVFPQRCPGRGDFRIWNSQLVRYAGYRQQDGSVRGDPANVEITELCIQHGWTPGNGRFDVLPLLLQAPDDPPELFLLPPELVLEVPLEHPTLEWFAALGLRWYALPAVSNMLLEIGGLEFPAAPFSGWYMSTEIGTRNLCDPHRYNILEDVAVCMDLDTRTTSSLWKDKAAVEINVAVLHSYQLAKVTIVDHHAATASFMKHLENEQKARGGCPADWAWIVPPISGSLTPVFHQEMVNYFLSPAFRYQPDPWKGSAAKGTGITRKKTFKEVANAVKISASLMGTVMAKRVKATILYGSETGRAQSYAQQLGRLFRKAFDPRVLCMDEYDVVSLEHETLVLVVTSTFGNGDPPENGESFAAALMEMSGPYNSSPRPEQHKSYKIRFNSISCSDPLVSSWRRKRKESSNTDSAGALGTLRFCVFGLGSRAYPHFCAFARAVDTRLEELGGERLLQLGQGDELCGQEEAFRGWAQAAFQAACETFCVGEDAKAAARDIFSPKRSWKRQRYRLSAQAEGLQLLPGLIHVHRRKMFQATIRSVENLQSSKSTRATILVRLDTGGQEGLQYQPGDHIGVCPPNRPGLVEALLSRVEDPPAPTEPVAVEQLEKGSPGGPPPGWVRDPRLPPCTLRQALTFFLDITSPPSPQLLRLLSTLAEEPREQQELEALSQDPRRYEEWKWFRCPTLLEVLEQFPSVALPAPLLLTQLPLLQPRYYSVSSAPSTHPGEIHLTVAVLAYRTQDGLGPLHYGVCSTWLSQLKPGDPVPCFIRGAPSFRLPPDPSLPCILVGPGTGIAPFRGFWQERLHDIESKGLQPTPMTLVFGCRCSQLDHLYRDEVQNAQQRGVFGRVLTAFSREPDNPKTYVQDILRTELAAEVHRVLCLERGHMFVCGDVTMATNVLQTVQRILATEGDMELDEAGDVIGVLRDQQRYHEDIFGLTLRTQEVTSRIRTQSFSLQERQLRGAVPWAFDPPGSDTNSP
endpointName: pKi
Give bare numbers, as −log10 of the molar value.

-- ask Tell me its pKi on Nitric oxide synthase, endothelial (Homo sapiens, UniProt P29474): Cc1cc(N)nc(CCc2cccc(CCc3cc(C)cc(N)n3)c2)c1 [NOS Inhibitor, 3h]
-- reply 5.38

###

biological target: Nitric oxide synthase, brain (Homo sapiens)
Sequence (P29475 whole entry): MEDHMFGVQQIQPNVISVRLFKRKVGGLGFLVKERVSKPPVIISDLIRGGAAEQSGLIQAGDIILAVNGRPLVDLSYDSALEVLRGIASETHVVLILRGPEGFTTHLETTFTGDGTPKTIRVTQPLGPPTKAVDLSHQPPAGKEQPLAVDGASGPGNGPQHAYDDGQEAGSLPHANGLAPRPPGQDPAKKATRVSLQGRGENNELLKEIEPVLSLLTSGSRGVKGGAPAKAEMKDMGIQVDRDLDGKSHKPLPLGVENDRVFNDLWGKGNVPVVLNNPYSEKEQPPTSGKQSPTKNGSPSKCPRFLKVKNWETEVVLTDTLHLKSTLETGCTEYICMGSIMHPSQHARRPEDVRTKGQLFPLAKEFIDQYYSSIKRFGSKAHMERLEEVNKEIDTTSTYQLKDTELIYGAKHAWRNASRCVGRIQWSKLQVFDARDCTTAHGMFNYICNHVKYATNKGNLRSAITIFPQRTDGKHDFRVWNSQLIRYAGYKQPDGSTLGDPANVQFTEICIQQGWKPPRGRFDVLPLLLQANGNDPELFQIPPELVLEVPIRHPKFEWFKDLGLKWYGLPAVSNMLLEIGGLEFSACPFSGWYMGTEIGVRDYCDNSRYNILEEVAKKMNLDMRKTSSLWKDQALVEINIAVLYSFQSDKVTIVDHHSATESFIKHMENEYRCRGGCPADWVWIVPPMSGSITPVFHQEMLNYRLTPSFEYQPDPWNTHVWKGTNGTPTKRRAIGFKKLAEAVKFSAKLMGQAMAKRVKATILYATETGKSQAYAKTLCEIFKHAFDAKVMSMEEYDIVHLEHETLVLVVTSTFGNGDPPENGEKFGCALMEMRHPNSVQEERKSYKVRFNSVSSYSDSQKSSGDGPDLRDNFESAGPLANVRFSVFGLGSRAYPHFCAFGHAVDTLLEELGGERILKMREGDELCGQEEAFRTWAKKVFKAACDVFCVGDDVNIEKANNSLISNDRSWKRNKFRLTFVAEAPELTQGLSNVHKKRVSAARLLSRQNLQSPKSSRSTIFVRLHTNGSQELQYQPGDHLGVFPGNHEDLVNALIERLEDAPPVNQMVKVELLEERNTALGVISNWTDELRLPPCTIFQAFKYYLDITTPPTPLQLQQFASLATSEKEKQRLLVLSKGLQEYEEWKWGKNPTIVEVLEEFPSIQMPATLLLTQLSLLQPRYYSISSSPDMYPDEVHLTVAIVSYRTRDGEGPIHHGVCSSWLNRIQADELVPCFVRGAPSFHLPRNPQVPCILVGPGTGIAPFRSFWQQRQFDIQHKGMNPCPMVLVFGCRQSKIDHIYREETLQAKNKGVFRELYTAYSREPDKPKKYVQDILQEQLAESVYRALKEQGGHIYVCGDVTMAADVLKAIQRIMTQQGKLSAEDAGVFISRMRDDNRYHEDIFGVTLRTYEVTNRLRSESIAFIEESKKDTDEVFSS
endpointName: pKi
Numbers only, as −log10 of the molar value.

-- ask Give reported pKi value for Cc1cc(N)nc(CCc2cncc(CCc3cc(C)nc(N)c3)c2)c1
-- reply 6.99
